assay.system: Toll-like receptor 7 (Homo sapiens, UniProt Q9NYK1)
Sequence (Q9NYK1 whole entry): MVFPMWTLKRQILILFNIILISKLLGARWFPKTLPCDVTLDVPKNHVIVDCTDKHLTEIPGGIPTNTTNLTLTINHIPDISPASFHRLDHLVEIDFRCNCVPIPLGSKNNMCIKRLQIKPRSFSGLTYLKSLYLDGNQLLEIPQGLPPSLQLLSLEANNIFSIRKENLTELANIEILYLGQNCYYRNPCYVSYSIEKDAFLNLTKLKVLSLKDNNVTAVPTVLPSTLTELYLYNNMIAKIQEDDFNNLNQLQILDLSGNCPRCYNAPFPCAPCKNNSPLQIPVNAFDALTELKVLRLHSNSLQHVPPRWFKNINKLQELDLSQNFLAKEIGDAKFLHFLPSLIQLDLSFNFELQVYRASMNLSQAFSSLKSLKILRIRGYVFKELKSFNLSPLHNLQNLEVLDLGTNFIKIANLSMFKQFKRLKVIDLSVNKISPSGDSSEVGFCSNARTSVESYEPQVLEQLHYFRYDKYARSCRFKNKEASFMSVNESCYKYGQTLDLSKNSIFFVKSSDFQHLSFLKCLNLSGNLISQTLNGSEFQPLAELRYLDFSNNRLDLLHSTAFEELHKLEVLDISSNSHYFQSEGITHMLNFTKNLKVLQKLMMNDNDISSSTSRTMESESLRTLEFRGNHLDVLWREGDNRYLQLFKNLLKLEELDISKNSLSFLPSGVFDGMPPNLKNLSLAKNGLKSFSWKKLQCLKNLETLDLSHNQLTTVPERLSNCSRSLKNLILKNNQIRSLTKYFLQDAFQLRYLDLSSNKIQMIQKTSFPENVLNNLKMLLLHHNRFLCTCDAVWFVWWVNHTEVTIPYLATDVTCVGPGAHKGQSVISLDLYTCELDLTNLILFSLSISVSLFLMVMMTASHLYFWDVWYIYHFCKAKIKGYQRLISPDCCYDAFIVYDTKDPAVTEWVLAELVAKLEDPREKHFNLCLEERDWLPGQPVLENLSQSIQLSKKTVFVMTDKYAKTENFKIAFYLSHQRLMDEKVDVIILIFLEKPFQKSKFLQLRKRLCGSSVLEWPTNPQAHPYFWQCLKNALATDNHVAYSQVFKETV
measurement.notes: Antagonist activity at gardiquimod stimulated TRL7 in human PBMC cells assessed as inhibition of IL-6 production by ELISA analysis
Format: cell-based
metric.name: IC50 (nM)
Answers are plain numbers, in nM.

Cc1cc(-c2[nH]c3ccc(C4CCNCC4)cc3c2C(C)C)cc(C)n1 has a reported IC50 of 1
